target_or_system: CYP3A4 (Homo sapiens)
Construct: from tissue; host or cells: pooled human liver microsomes
Sequence (P08684 2-503): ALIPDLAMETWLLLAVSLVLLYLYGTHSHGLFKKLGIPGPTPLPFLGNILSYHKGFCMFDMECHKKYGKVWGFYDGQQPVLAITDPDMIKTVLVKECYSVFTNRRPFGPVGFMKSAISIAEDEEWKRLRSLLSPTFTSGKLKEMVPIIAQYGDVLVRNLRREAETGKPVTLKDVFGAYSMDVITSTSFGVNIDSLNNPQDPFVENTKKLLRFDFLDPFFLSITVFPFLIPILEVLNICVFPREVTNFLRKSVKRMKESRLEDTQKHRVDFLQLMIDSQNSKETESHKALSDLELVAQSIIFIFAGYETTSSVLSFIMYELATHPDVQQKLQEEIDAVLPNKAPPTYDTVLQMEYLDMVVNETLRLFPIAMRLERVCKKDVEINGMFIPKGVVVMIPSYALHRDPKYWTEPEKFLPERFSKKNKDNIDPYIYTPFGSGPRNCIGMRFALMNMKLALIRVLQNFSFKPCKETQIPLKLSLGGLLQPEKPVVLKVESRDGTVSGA
assay_overview: CYP inhibition in pooled human liver microsomes
Assay type: in vitro ADME
measurement_parameters: read-out: IC50 inhibition of CYP3A4TST
quantity_measured: IC50

For reference, reported IC50 for `COc1ccc(/C=C/c2cc(OC)cc(B(O)O)c2)cc1` stands at > 100 µM

====

assay_overview: In vivo ADME/plasma pharmacokinetics in male CD1 mice
measurement_parameters: male, CD1, mouse, plasma; oral; read-out: Time to maximum concentration (Tmax)
quantity_measured: Tmax

For reference, reported Tmax for COc1ccc(/C=C/c2cc(OC)cc(B(O)O)c2)cc1 [VMY-BC-1] stands at 1 to 2 h

====

assay_overview: Plasma vs tumor PK in MDA-MB-231 xenograft mice
Assay type: in vivo, athymic nude mice
measurement_parameters: athymic nude, mouse; Plasma, oral 75 mg/kg
quantity_measured: half-life (h)
Respond numerically; units are h and should not be typed.

For reference, reported half-life for `COc1ccc(/C=C/c2cc(OC)cc(B(O)O)c2)cc1` stands at 3.15

====

Recorded pIC50, one value per entry.
Test system: GL261
assay_overview: GBM cell viability, Alamar blue, 72 hours
Format: cell-based
measurement_parameters: Mus musculus, GL261, established glioma cell line
Here pIC50 is given on a logarithmic scale as minus log10 of the concentration in mol/L.

INSERT INTO measurements (molecule, quantity_measured, recorded_measurement) VALUES
  ('COc1ccc(/C=C/c2cc(OC)cc(B(O)O)c2)cc1', 'pIC50', 5.38);

For reference, reported pIC50 for Oc1ccc(C=Cc2cc(O)cc(O)c2)cc1 [Resveratrol, resveratrol, reference compound] stands at 4.98

====

assay_overview: Brain pharmacokinetics in mice
Assay type: in vivo
measurement_parameters: mouse; Brain, oral 25 mg/kg
quantity_measured: Tmax

For reference, reported Tmax for `COc1ccc(/C=C/c2cc(OC)cc(B(O)O)c2)cc1` stands at 30 min

====

assay_overview: Pharmacokinetics of BC-2 and BC-3 in mouse plasma and brain
Assay type: in vivo, mice
measurement_parameters: mouse, in vivo, po, 5 mg/kg
quantity_measured: T½ (min)
Respond numerically; units are min and should not be typed.

For reference, reported T½ for CCOc1ccc(/C=C/c2cc(OC)cc(B(O)O)c2)cc1 [BC-2] stands at 54.8

====

assay_overview: In vivo ADME/plasma pharmacokinetics in male CD1 mice
measurement_parameters: male, CD1, mouse, plasma; 25 mg/kg oral; read-out: Oral suspension bioavailability F (%)
quantity_measured: bioavailability

For reference, reported bioavailability for `COc1ccc(/C=C/c2cc(OC)cc(B(O)O)c2)cc1` stands at > 100%

====

Recorded pIC50, one value per entry.
Tested on: GBM4
assay_overview: GBM cell viability, Alamar blue, 72 hours
Assay type: cell-based
measurement_parameters: GBM4, patient-derived cell line
Here pIC50 is given on a logarithmic scale as minus log10 of the concentration in mol/L.

INSERT INTO assay_data (molecule, recorded_measurement) VALUES
  ('COc1ccc(/C=C/c2cc(OC)cc(B(O)O)c2)cc1', 4.96);

For reference, reported pIC50 for Oc1ccc(C=Cc2cc(O)cc(O)c2)cc1 [Resveratrol, resveratrol, reference compound] stands at 4.39

====

assay_overview: Brain pharmacokinetics in mice
Format: in vivo
measurement_parameters: 25 mg/kg single dose P.O., 12.00 h
quantity_measured: Mean Plasma Concentration
Reply with a number, then the unit it belongs to.

For reference, reported Mean Plasma Concentration for `COc1ccc(/C=C/c2cc(OC)cc(B(O)O)c2)cc1` stands at 0 ng/mL
